- test_details: Oral bioavailability in cefoperazone-treated C57Bl/6J mouse at 1 mg/kg dosed each day for 5 days by LC/MS-SRM analysis
- Type: ADME, organism-based
- particulars: in vivo
measure_name: bioavailability

[[record]]
structure_notation = "O=C(Nc1cc(C(F)(F)F)c(Oc2ccc(Cl)cc2)c(C(F)(F)F)c1)c1cc(Cl)cc(Cl)c1O"
measured = "76%"


----------
- test_details: Cmax in cefoperazone-treated C57Bl/6J mouse at 1 mg/kg, po dosed each day for 5 days by LC/MS-SRM analysis
- Type: ADME, organism-based
- Design: dose 1 mg/kg, route oral
- particulars: in vivo
measure_name: Cmax (µM)

[[record]]
structure_notation = "O=C(Nc1cc(C(F)(F)F)c(Oc2ccc(Cl)cc2)c(C(F)(F)F)c1)c1cc(Cl)cc(Cl)c1O"
measured = 1.78

